assay: Clearance in Beagle dog by LC-MS/MS analysis; type: ADME, Canis lupus familiaris; conditions: in vivo
Parameter measured: clearance (mL/min/kg)
Enter your answer as a number in mL/min/kg; do not include the unit.

# input Item under review: `C[C@H](CCC(C)(C)O)[C@H]1CC[C@H]2[C@@H]3CC=C4C[C@@](C)(O)CC[C@]4(C)[C@H]3CC[C@]12C` . Reported clearance?
# output 3.33

# input Param item: `C[C@H](CC[C@](C)(O)C(F)(F)F)[C@H]1CC[C@H]2[C@@H]3CC=C4C[C@@](C)(O)CC[C@]4(C)[C@H]3CC[C@]12C`
# output 3.33

----------
Provide the reported CL/F of each item.
assay: Clearance in po dosed rat; type: ADME, organism-based; details: in vivo
Please reply with the bare figure in mL/min/kg and do not write the unit itself.

# input Entry `C[C@H](CC[C@@H](O)C(F)(F)F)[C@H]1CC[C@H]2[C@@H]3CC=C4C[C@@](C)(O)CC[C@]4(C)[C@H]3CC[C@]12C` : reported CL/F = ?
# output 33.3

# input Follow-up entry: `CC(C)[C@@H](O)CC[C@@H](C)[C@H]1CC[C@H]2[C@@H]3CC=C4C[C@@H](O)CC[C@]4(C)[C@H]3CC[C@]12C`
# output 91.7

# input Now this one: `C[C@H](CCC(C)(C)O)[C@H]1CC[C@H]2[C@@H]3CC=C4C[C@@](C)(O)CC[C@]4(C)[C@H]3CC[C@]12C`
# output 18.3

----------
biological target: Voltage-dependent L-type calcium channel subunit alpha-1C (Homo sapiens, UniProt Q13936); assay: Inhibition of CaV1.2 (unknown origin) by patch clamp method
Sequence (Q13936 whole entry): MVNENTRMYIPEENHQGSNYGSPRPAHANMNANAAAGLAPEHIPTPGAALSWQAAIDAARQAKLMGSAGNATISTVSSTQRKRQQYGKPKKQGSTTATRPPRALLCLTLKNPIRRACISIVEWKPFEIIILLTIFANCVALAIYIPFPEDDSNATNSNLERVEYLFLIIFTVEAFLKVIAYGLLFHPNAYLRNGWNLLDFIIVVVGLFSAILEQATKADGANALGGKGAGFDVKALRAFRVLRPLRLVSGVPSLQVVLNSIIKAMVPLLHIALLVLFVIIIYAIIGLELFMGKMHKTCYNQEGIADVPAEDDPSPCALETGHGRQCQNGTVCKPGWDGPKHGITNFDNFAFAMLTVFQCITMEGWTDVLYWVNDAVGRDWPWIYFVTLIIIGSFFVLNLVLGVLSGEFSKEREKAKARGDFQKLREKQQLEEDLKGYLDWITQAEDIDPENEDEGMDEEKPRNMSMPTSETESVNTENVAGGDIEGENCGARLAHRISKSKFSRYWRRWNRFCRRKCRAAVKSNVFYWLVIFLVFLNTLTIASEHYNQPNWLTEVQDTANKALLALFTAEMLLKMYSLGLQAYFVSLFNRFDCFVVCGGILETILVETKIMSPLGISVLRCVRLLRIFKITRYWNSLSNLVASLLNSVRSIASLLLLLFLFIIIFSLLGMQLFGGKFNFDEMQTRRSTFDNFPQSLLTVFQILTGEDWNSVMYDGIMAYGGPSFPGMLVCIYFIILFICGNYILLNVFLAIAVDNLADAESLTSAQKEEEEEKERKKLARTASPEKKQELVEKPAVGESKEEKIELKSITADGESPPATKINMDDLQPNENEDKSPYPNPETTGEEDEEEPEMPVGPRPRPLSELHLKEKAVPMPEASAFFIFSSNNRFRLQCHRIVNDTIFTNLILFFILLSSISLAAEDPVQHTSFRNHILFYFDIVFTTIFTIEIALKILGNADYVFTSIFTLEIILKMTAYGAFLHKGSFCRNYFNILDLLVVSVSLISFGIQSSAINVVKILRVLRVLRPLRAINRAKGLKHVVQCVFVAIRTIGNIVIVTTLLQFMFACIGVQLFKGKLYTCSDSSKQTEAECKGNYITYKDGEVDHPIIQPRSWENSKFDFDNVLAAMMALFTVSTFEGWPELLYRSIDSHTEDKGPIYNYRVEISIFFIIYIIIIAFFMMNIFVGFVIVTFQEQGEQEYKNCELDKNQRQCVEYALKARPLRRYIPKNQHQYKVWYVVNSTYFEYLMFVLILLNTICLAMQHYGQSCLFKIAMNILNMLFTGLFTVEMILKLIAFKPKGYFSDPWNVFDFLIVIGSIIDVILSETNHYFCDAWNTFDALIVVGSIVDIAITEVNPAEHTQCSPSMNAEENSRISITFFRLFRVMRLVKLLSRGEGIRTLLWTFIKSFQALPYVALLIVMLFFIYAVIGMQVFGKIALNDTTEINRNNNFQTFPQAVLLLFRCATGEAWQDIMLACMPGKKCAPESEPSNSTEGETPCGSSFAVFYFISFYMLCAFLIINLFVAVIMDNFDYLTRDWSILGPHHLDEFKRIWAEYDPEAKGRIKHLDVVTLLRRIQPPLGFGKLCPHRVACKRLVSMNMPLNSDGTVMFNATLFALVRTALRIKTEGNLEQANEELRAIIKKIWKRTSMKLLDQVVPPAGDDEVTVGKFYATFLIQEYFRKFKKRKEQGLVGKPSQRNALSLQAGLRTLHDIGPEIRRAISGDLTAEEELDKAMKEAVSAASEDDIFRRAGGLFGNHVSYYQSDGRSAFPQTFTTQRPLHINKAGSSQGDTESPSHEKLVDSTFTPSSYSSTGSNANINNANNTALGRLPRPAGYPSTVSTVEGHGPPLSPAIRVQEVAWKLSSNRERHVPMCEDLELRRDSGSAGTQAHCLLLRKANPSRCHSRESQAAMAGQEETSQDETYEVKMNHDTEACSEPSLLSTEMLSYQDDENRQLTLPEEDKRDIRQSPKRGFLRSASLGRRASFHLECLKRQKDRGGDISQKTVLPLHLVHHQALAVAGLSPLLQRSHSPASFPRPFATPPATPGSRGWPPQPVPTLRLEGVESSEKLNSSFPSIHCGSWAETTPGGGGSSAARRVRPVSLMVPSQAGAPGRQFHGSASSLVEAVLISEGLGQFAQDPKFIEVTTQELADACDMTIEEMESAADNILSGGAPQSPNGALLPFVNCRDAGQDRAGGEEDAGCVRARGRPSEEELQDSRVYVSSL
Parameter measured: IC50

# input Which IC50 reading was recorded for the molecule C[C@H](CC[C@](C)(O)C(F)(F)F)[C@H]1CC[C@H]2[C@@H]3CC=C4C[C@@](C)(O)CC[C@]4(C)[C@H]3CC[C@]12C [DALZANEMDOR] ?
# output > 30 µM

----------
assay: Plasma protein binding in human after 15 mins by equilibrium dialysis method; format: ADME, cell-free; conditions: read-out: PPB (converted)
Parameter measured: fraction unbound at 0.25 h
Format: numeric value only, no unit, no commentary.

# input Find the recorded fraction unbound at 0.25 h belonging to C[C@H](CC[C@](C)(O)C(F)(F)F)[C@H]1CC[C@H]2[C@@H]3CC=C4C[C@@](C)(O)CC[C@]4(C)[C@H]3CC[C@]12C [DALZANEMDOR] and report it.
# output 0.015

----------
experiment: Plasma protein binding in mouse after 15 mins by equilibrium dialysis method; format: ADME, cell-free; conditions: read-out: PPB (converted)
Parameter measured: fraction unbound at 0.25 h
API note: the answer field is a bare number with no unit suffix.

# input Suppose we examine the compound `C[C@H](CC[C@](C)(O)C(F)(F)F)[C@H]1CC[C@H]2[C@@H]3CC=C4C[C@@](C)(O)CC[C@]4(C)[C@H]3CC[C@]12C` ; what fraction unbound at 0.25 h value has been reported?
# output 0.014

----------
molecular target: Glutamate NMDA receptor; GRIN1/GRIN2B (Homo sapiens, UniProt Q05586+Q13224); experiment: Positive allosteric modulation of recombinant human GluN1/GluN2B receptor stably expressed in HEK293 cells assessed as increase in glycine/L-glutamate-induced channel current at -70 mV holding potential by whole cell patch clamp method relative to control; type: cell-based; settings: filed as positive allosteric modulator
Record form. Attribute: Emax. Fill in for each entry.
Give the value, in units of %, as a plain number.

# input Recorded Emax of `CC[C@](C)(O)CC[C@@H](C)[C@H]1CC[C@H]2[C@@H]3CC=C4C[C@@](C)(O)CC[C@]4(C)[C@H]3CC[C@]12C` , please.
# output 120

# input Cool, now `C[C@H](CC[C@](C)(O)C(F)(F)F)[C@H]1CC[C@H]2[C@@H]3CC[C@H]4C[C@@](C)(O)CC[C@]4(C)[C@H]3CC[C@]12C`
# output 100

# input Also need `C[C@H](CC[C@](C)(O)C1CC1)[C@H]1CC[C@H]2[C@@H]3CC=C4C[C@@](C)(O)CC[C@]4(C)[C@H]3CC[C@]12C` , thanks.
# output 130

# input Try this compound next: `C[C@H](CC[C@@](C)(O)C1CC1)[C@H]1CC[C@H]2[C@@H]3CC=C4C[C@@](C)(O)CC[C@]4(C)[C@H]3CC[C@]12C`
# output 140

# input Now consider `COCC[C@@](C)(O)CC[C@@H](C)[C@H]1CC[C@H]2[C@@H]3CC=C4C[C@@](C)(O)CC[C@]4(C)[C@H]3CC[C@]12C` and answer again.
# output 130

# input Same for `CCCC[C@](C)(O)CC[C@@H](C)[C@H]1CC[C@H]2[C@@H]3CC=C4C[C@@](C)(O)CC[C@]4(C)[C@H]3CC[C@]12C`
# output 170
